tested on: SK-MEL-2 melanoma; test: NCI tumour cell line growth inhibition, 48 h
VALUE KIND: GI50

Guide cases for GI50, answers given:
c1cc(CNC23CC4CC(CC(C4)C2)C3)cc(C[N+](Cc2cccc(CNC34CC5CC(CC(C5)C3)C4)c2)(Cc2cccc(CNC34CC5CC(CC(C5)C3)C4)c2)Cc2cccc(CNC34CC5CC(CC(C5)C3)C4)c2)c1 (stereo unspecified) | 4.44 µM
C[C@@]12CC=C3c4nc(Nc5cccc(O)c5)sc4CC[C@]3(C)[C@H]1CC[C@]1(C)C(=O)CC[C@@H]21 | 2.86 µM

Each of the following entries comes with a recorded value; kindly state GI50 for each.
1. CC(C)(C)c1cc(C(C)(C)C)cc(S(=O)(=O)Nc2cc3ccccc3cc2C(=O)NCCN)c1
2. COc1cc2ncnc(Nc3ccc(C)c(O)c3)c2cc1OC
3. Cc1ccc(C(=O)CN(/C=C/C(=O)C(F)(F)F)c2ccc(S(N)(=O)=O)cc2)cc1

["1.92 µM", "> 13.4 µM", "> 100 µM"]

Each of the following entries comes with a recorded value; kindly state GI50 for each.
1. CCOC(=O)[C@@H](N)CCC(=O)N[C@@H](CSCc1ccccc1)C(=O)N[C@@H](C(=O)OCC)c1ccccc1
2. COc1cc(-c2ccc3c(c2)NC(=O)/C3=C\c2ccc[nH]2)ccc1O
3. COC(=O)[C@@H](C)CNS(=O)(=O)N(c1cc(C(F)(F)F)cc(C(F)(F)F)c1)C1CCN(Cc2ccc(F)cc2)CC1
4. CCCCCCCC/C=C/CCCCCCCC(=O)OC[C@H]1O[C@@H](n2ccc(N)nc2=O)C(F)(F)[C@@H]1O

1. 16.7 µM
2. 0.034 µM
3. 21 µM
4. 14.2 µM

Each of the following entries comes with a recorded value; kindly state GI50 for each.
1. CCC[CH2][Sn]1([CH2]CCC)[O]CC(CN2CCCC2)[O]1 (stereo unspecified)
2. CC(C)n1nc(-c2cc3cc(O)ccc3[nH]2)c2c(N)ncnc21

["13.8 µM", "0.229 µM"]

---

test system: UACC-62 melanoma; experiment: NCI tumour cell line growth inhibition, 48 h
VALUE KIND: TGI (µM)
Answers are plain numbers, in µM.

Each of the following entries comes with a recorded value; kindly state TGI for each.
1. CC1CC[C@]2(C(=O)O)CCC3(C)C(=CC(=O)C4[C@@]5(C)CCC(=O)C(C)(C)C5CC[C@]43C)[C@@H]2[C@H]1C (some centres not stated)
2. Cc1ccc(-c2c(C#N)c(-c3ccc(Cl)cc3)c(C#N)c(=O)n2NS(=O)(=O)c2ccc(C)cc2)cc1

1. 30.6
2. 45

Output measured TGI for this item: CC(=O)[O-].CCN(CC)c1ccc(C=NCCN=Cc2ccc(N(CC)CC)cc2[O-])c([O-])c1.[Mn+3]
57.5

---

system: OVCAR-5 ovarian; test: NCI tumour cell line growth inhibition, 48 h
VALUE KIND: TGI

Guide cases for TGI, answers given:
CN(C)C(=O)c1cc2cnc(Nc3ccc(-c4csc5c(=S)cc(N6CCOCC6)oc45)cc3)nc2n1C1CCCC1 | > 50 µM
CCOC(=O)C(=Cc1[nH]c2ccccc2c1-c1c[nH]c2ccccc12)C(=O)OCC | 30.3 µM
CC1(C)SCc2nc3ncccc3n21 | > 100 µM
CN1CCC(O)(C(C)(C)C)CC1 | > 100 µM
C1=CC2SSSC2C1 (centres undefined) | > 100 µM

Each of the following entries comes with a recorded value; kindly state TGI for each.
1. CCCN1CCC(=O)N(CCC(F)(F)C(F)(F)C(F)(F)C(F)(F)C(F)(F)C(F)(F)F)C1=S
2. NC(N)=N/N=C/c1c[nH]c2ccccc12
3. N=C1C(c2nc3ccccc3s2)=C(O)CN1c1cc(C(F)(F)F)ccc1Cl
4. NS(=O)(=O)c1ccc(NC2(C(=O)O)CCCC2)cc1

["> 100 µM", "> 100 µM", "> 100 µM", "> 100 µM"]

---

tested on: RXF 393 renal; assay: NCI tumour cell line growth inhibition, 48 h; in the data active means GI50 below about 0.43 µM; inactive means the rest
Respond only with the outcome that fits, drawn from active, inactive

Consider the following illustrative entries.
CN1C/C=C\CCOc2cccc(c2)-c2ccnc(n2)Nc2cccc(c2)C1 | active
NS(=O)(=O)c1ccc(N=Nc2c(O)[nH]c3ccc(-c4cnco4)cc23)cc1 | inactive
CCOC(=O)c1c(C)n(Cc2ccc(Cl)cc2Cl)c2c1c(CN(C)C)c(O)c1[nH]cnc12 | inactive
C=C1C(=O)O[C@H]2[C@H]1CC/C(COC(=O)C(=O)c1cn(Cc3ccccc3)c3ccccc13)=C\CC[C@@]1(C)O[C@@H]21 | inactive
c1cc(CNC23CC4CC(CC(C4)C2)C3)cc(C[N+](Cc2cccc(CNC34CC5CC(CC(C5)C3)C4)c2)(Cc2cccc(CNC34CC5CC(CC(C5)C3)C4)c2)Cc2cccc(CNC34CC5CC(CC(C5)C3)C4)c2)c1 (stereo unspecified) | inactive

Now look at this one.
# lookup: test call for N=C1C(c2nc3ccccc3s2)=C(O)CN1c1cc(C(F)(F)F)ccc1Cl
inactive

---

system: NCI-H460 lung; experiment: NCI tumour cell line growth inhibition, 48 h
Please provide measured TGI for the entries that follow.

Guide cases for TGI, answers given:
COc1ccc(C2OC[C@H]3O[C@@H](OCc4ccccc4)[C@H](O)[C@@H](O)[C@@H]3O2)cc1 (stereo not given in full) | > 100 µM
O=C1/C(=C/c2ccc([N+](=O)[O-])cc2)C(=O)N(c2ccccc2)C1c1ccccc1 (stereo not given) | > 10 µM
NS(=O)(=O)c1ccc(N=Nc2c(O)[nH]c3ccc(-c4cnco4)cc23)cc1 | > 25 µM
CC(C)(C)c1ccc2c(c1)S(=O)(=O)Nc1ccccc1NS(=O)(=O)c1cc(C(C)(C)C)ccc1OCCOCCOCCO2 | > 100 µM

Each of the following entries comes with a recorded value; kindly state TGI for each.
1. Cn1c2c(c3ccccc31)CC1c3c(c4ccccc4n3C)CC21 (stereo not given)
2. O=C(NNC(=S)Nc1cccc(Cl)c1)c1cc(-c2ccccc2)nc2ccccc12
3. N=C(N)c1ccc(C(NC(=O)CNS(=O)(=O)c2ccc3ccccc3c2)P(=O)(Oc2ccccc2)Oc2ccccc2)cc1 (stereo not given)
4. c1ccc(CNn2nnc3ccccc32)cc1
5. O=Cc1c(C(=O)O)[nH]c(=O)[nH]c1=O
6. CCC[CH2][Sn]1([CH2]CCC)[O]CC(CN2CCCC2)[O]1 (stereo not given)

> 100 µM
39.6 µM
> 100 µM
> 100 µM
> 100 µM
> 100 µM

---

tested on: SN12C renal; test: NCI tumour cell line growth inhibition, 48 h
VALUE KIND: TGI

Guide cases for TGI, answers given:
O=Cc1c(C(=O)O)[nH]c(=O)[nH]c1=O | > 100 µM
CC1(C)NC2C(=O)c3c([nH]c4ccccc34)[C@]3(C)CCC1CC23 (some centres undefined) | > 100 µM

Each of the following entries comes with a recorded value; kindly state TGI for each.
1. CCOC(=O)C1=C(C)N(NC(=O)Nc2ccccc2)C(=O)C1=P(c1ccccc1)(c1ccccc1)c1ccccc1
2. O=C(O)c1ccc([N+](=O)[O-])c2cc3cnccc3nc12
3. COc1cc(/C=C2/C[C@H]3[C@@H]4CC=C5C[C@@H](O)CC[C@]5(C)[C@H]4CC[C@]3(C)NC2=O)cc(OC)c1OC
4. Nc1nc(N)c2ncn(-c3ccc(Cl)cc3)c2n1
5. Cc1cc(Cl)ccc1N=C1NC(=O)C(CC(=O)Nc2ccc([N+](=O)[O-])cc2[N+](=O)[O-])S1 (centres undefined)
6. COC(=O)C1=C(C)N(NC(=O)OC(C)(C)C)C(=O)C1=P(c1ccccc1)(c1ccccc1)c1ccccc1
7. CCOC(=O)/C=C(/C(=O)OCC)n1ccc(=O)n(Cc2cn(COCCOC(C)=O)nn2)c1=O

1: > 100 µM; 2: 32.8 µM; 3: > 64.2 µM; 4: > 100 µM; 5: 90.7 µM; 6: > 100 µM; 7: > 100 µM

Each of the following entries comes with a recorded value; kindly state TGI for each.
1. Cc1cccc(N=NC(=O)NNc2cccc(C)c2C)c1C
2. COc1cc(/C=C2\C(=O)N(c3ccccc3)C(c3ccccc3)S2(=O)=O)cc(OC)c1OC (centres undefined)
3. C=C1C(=O)O[C@@H]2/C=C(\C)CC/C=C(/COC(C)=O)C[C@@H](OC(C)=O)[C@@H]12
4. CC1(C)C(=O)N(CCCCCCN2C(=O)C(C)(C)c3ccccc32)c2ccccc21

> 100 µM
> 100 µM
24.9 µM
> 100 µM

Output measured TGI for this item: Oc1cccnc1CN1CCCCC1
> 100 µM

---

Please provide measured TGI for the entries that follow.
tested on: MALME-3M melanoma; assay: NCI tumour cell line growth inhibition, 48 h

O=C(c1ccc(N=Cc2ccccc2O)cc1)c1ccc(N=Cc2ccccc2O)cc1 | > 100 µM
O=C(N/N=C/c1ccc(Cl)cc1)c1ccc(C(F)(F)F)nc1Nc1cccc(C(F)(F)F)c1 | 23 µM
NS(=O)(=O)c1ccc(NC2(C(=O)O)CCCC2)cc1 | > 100 µM
CC(C)(C)c1ccc2c(c1)S(=O)(=O)Nc1ccccc1NS(=O)(=O)c1cc(C(C)(C)C)ccc1OCCOCCOCCO2 | 97 µM
Nn1c(=O)n(Cc2ccccc2)n(-c2ccccc2)c1=O | > 100 µM
NCC1Nc2ccccc2[C@@H](O)C1O (stereo not given in full) | > 100 µM

Each of the following entries comes with a recorded value; kindly state TGI for each.
1. c1ccc(CNn2nnc3ccccc32)cc1
2. NC(N)=N/N=C(\c1nc2ccc([N+](=O)[O-])cc2[nH]c1=O)C(O)c1ccc([N+](=O)[O-])cc1 (stereo not given)
3. NCCCCN(CCCN)/[N+]([O-])=N\O

1. > 100 µM
2. > 100 µM
3. > 100 µM
